pKi: −log10 of the molar value.
Consider the following pKi values measured on PI3Kα (Homo sapiens (Human), UniProt P42336).
Sequence (P42336 whole entry): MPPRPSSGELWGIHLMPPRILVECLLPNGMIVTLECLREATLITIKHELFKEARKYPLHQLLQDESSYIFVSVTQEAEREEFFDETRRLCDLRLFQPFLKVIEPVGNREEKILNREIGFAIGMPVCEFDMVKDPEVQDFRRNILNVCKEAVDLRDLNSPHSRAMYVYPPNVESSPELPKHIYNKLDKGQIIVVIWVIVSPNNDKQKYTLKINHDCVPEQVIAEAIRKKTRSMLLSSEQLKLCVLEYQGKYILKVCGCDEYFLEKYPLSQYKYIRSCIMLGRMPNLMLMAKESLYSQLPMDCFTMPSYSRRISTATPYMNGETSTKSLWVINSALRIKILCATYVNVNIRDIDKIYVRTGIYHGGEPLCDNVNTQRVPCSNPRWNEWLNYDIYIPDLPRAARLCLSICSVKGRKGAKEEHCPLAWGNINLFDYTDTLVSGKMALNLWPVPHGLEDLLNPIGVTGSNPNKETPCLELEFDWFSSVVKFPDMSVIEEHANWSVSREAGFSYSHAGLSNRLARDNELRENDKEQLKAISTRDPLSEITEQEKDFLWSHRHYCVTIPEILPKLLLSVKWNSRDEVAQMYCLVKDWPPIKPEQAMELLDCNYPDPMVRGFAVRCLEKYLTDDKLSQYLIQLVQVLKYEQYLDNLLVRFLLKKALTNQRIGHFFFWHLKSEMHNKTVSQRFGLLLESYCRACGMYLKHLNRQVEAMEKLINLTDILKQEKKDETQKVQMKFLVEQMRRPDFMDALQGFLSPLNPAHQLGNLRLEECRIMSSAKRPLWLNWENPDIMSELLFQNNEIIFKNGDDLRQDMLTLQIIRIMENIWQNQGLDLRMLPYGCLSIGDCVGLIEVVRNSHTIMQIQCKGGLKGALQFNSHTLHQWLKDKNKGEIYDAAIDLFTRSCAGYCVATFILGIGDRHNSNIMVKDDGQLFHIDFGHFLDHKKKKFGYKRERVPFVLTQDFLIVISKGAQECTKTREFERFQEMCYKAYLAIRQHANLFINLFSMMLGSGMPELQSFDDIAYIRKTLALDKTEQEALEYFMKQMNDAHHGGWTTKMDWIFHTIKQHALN
Sequence (P27986 whole entry partner): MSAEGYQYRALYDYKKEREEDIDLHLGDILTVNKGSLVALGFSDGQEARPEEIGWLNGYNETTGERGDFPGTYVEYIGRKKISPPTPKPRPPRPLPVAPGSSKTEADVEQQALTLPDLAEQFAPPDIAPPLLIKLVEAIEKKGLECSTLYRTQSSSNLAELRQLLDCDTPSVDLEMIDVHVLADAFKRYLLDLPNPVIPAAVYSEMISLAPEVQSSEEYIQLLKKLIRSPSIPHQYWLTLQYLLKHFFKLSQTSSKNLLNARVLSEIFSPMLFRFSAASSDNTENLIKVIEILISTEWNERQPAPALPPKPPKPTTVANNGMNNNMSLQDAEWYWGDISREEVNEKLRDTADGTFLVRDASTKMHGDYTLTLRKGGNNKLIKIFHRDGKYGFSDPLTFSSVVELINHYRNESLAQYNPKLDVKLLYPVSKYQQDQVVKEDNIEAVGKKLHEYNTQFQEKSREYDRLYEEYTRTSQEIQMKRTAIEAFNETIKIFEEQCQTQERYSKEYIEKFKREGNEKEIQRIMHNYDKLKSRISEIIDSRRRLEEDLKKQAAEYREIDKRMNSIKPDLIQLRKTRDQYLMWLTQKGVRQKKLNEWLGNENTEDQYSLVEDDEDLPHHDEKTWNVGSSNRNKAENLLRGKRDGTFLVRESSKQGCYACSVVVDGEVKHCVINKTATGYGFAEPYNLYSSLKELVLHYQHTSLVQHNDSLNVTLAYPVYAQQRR
readoutType: pKi

INSERT INTO results (compound, readouttype, valueprefix, measurement) VALUES
  ('COc1cc(-c2cnc3ccccn23)cnc1OC [Example 10]', 'pKi', '<', 5.82),
  ('O=S(=O)(Nc1cc(-c2cnc3ccccn23)cnc1Cl)c1ccc(F)cc1 [Example 3]', 'pKi', '=', 7.55),
  ('CS(=O)(=O)Nc1cc(-c2cnc3cc(-c4cccnc4)ccn23)cnc1Cl [Example 20]', 'pKi', '=', 8.30),
  ('O=S(=O)(Nc1cc(-c2cnc3ccc(N4CCOCC4)cn23)cnc1Cl)c1ccc(F)cc1 [Example 9]', 'pKi', '=', 8.40),
  ('O=c1n(Cc2ccccc2)ccc2ncc(-c3cnc(Cl)c(NS(=O)(=O)c4ccc(F)cc4)c3)n12 [Example 17]', 'pKi', '=', 6.33),
  ('COc1cc(-c2cnc3ccc(N4CCOC4=O)cn23)cnc1OC [Example 13]', 'pKi', '<', 5.82),
  ('Cc1cc2ncc(-c3cnc(Cl)c(NS(=O)(=O)N(C)C)c3)n2cc1-c1ccncc1 [Example 23]', 'pKi', '=', 8.40),
  ('Cc1nc2ccc(Br)cn2c1-c1cnc(Cl)c(NS(=O)(=O)c2ccc(F)cc2)c1 [Example 5]', 'pKi', '=', 7.70),
  ('COc1cc(-c2cnc3ccc(Br)cn23)cnc1OC [Example 11]', 'pKi', '=', 6.11);

Reference source for all entries: patent US8729074B2
